apparent KD of MS2 coat protein listing for selected sequences.
Tested on: MS2 coat protein
Assay: apparent KD of MS2 coat protein; designed switch direction (-1 OFF switch, 1 ON switch): -1; higher = weaker reporter binding
Details: input ligand: microRNA oligo, concentration not stated
Express it in nM; write the number only.

{"seq.string": "GCUGCACAUGUAGGAUAUCUGCACGUGUAGUGCAGAGAAGGACAUGAGGAUCACCCAUGUAGAUCAGCAGCAAUUAAUUUAAUU [ENG1/6-A2] (Eterna round: R96, puzzle: Exclusion NG 1)", "numeric.result": 273}
{"seq.string": "GCAGCUAGUUCAGGAUAUCAGCACGUGUAGUGCUGAGAAGGGAACAUGAGGAUCACCCAUGUGAUCAAUGCUGCAAUUUUAAUU [ENG1/12-A3] (Eterna round: R96, puzzle: Exclusion NG 1)", "numeric.result": 461}
{"seq.string": "CCGUUCCGUGUAGGAUAUUGGCCUACCACGGGCCGAGAAGGACAUGAGGAUCACCCAUGUAUGCUAUUAUCGCGCGUGGCGCCC [Design 99] (Eterna round: R96, puzzle: Exclusion NG 1)", "numeric.result": 15.4}
{"seq.string": "CGGGACGUCCUGAUAAUAAGACAUGAGGAUCACCCAUGUCGGCAGGAUAUCAGUCCUUACGGUUUUGAGAAGGGUCGACAACCA [Birace] (Eterna round: R96, puzzle: Exclusion NG 3)", "numeric.result": 8.27}

# apparent KD of MS2 coat protein lookup, item GUCAGCUCGUGAGGAUAUACAUGAGGAUCACCCAUGUGGUCAUUAGCAGCUUCGGCUGCAUUAAUGUAGAAGGCACGAGCUGAC [ENG2/8-A1] (Eterna round: R96, puzzle: Exclusion NG 2) 690

---

System: MS2 coat protein
Experiment: apparent KD of MS2 coat protein; designed switch direction (-1 OFF switch, 1 ON switch): -1; higher = weaker reporter binding
Details: input ligand: none
Think of 0.03 µM as a floor: if apparent KD of MS2 coat protein stands on it or above, it is 1; beneath it, 0.

The examples below pair each entry with its known result.
{"seq.string": "ACUGUUUGAUUCCUCUUAUACAUGAGGAUCACCCAUGUUAUCGAGGAUAUGCAUUAGAGUGUUUAGCAGAAGGCGAUGUAAUUG [JR_ExcNG3_Sub033] (Eterna round: R96, puzzle: Exclusion NG 3)", "assigned.class": 0}
{"seq.string": "CCCGUGUAAGGAUAUCGUUCACUUGGCGAAAGUCGAGUGGACGAGAAGGUACAUGAGGAUCACCCAUGUACGGG [-36.1, -35.7 kcal, A 27%] (Eterna round: R97, puzzle: Exclusion 4)", "assigned.class": 1}
{"seq.string": "UUAAUUAAUUGACUGCAAGAUCAACAUGAGGAUCACCCAUGUGAGGAUAUCAGCUCGAUUAGAGCUGAGAAGGCACAAGCAGUC [ExNG3/16-A1] (Eterna round: R96, puzzle: Exclusion NG 3)", "assigned.class": 0}
{"seq.string": "AGCGUGGAGACAGGAUAUGAGAAUAGAUAGAACUCAGAAGGGUCACAUGAGGAUCACCCAUGUAAAGUCUUGAGGAUGAGUGAU [Prohibition 4 - Jieux - Exclusion NG 1] (Eterna round: R96, puzzle: Exclusion NG 1)", "assigned.class": 1}
{"seq.string": "CCUUGACAUGAGGAUCACCCAUGUGAGGAUAUGAUGCGAUCGUCGAAAGACGAUAGCAUCAGAAGGCACAUAUG [Fiskers Ex 1 - 8] (Eterna round: R96, puzzle: Exclusion 1)", "assigned.class": 0}
{"seq.string": "UAGCAACGAGGAUAUGCGGGCCUGAACCUAAAGUCGACCUUACAUGAGGAUCACCCAUGUAGAAGGCGUAGUGU [Eternabot (L2) Solution 71] (Eterna round: R97, puzzle: Exclusion 2)", "assigned.class": 0}
{"seq.string": "UGCGGGCUUUUGAGACCUCACAUGAGGAUCACCCAUGUGCUUGUCUUGUGGGUCGGUCGGUCGUUGGCUGGCUGGCG [Sensor-V1 #95] (Eterna round: R97, puzzle: Sensor, turn-off variant 1)", "assigned.class": 0}
{"seq.string": "UUAAAUCAUGUAGGAUAUGCGUGGCGAAGCUAUGCAGAAGGACAUGAGGAUCACCCAUGUUCUAGCGUCCGCGUACGGAUGCAA [JL Eng1 1.21 mod 10] (Eterna round: R96, puzzle: Exclusion NG 1)", "assigned.class": 0}
{"seq.string": "CUAGCGGAUGUAGGAUAUCGGACUGUUUCAGUCUGAGAAGGACAUGAGGAUCACCCAUGUAUAGCUACGUGAGUAGCUCGCUAG [JL ENG1 3.95] (Eterna round: R96, puzzle: Exclusion NG 1)", "assigned.class": 0}
{"seq.string": "UCACACGGAGGAUAUACCGUCGGUCAUUGGUGUGACGUAUCACAUGAGGAUCACCCAUGUAGAAGGCCGUGCUU [Eternabot (L2) Solution 14] (Eterna round: R97, puzzle: Exclusion 2)", "assigned.class": 1}

Exam item: decide whether the reported apparent KD of MS2 coat protein for AUAAAUCAUGUAGGAUAUGCGUGGCGAAGCUAUGCAGAAGGACAUGAGGAUCACCCAUGUUCUAGCGUCUGAGUACAGAUGCAA [Mat - Exclusion NG 1 - Mod of JL - D3] (Eterna round: R96, puzzle: Exclusion NG 1) is at least 0.03 µM. 0

State whether the measured apparent KD of MS2 coat protein reaches 0.03 µM, counting equality as reaching it, for ACUGGAGCAGGAUAUACAUAACGUGCUUCGGCACGAGAUCUACAUGAGGAUCACCCAUGUAGAAGGGCUCCAGU [E2/10-D1] (Eterna round: R97, puzzle: Exclusion 2) 0

Please indicate if the recorded apparent KD of MS2 coat protein for GUAGAGUCAGGAUAUACGAGAUCGAAAGAUCGGCGAUCCAAACAUGAGGAUCACCCAUGUAGAAGGGACUCUAC [Eli x2 4.004] (Eterna round: R97, puzzle: Exclusion 2) meets or exceeds 0.03 µM. 1

# bool: apparent KD of MS2 coat protein of GCACCACGAGGAUAUACAUGAGGAUCACCCAUGUGAUCAGCAGUCCUCGGACUGCAAUGUAGAAGGCGUGGUGC [E3/1-A1] (Eterna round: R97, puzzle: Exclusion 3) >= 0.03 µM 1

Threshold query (apparent KD of MS2 coat protein >= 0.03 µM) on AACGUGUAAGGAUAUGCUGCUCGUCACGAAAGUGAUGAGUAGCAGAAGGUACAUGAGGAUCACCCAUGUAAAGA [Exclusion 4.1f (Exclusion4-cac2 - changed GC at 6/50 to AU )] (Eterna round: R96, puzzle: Exclusion 4) 0

---

Test system: MS2 coat protein
Test: apparent KD of MS2 coat protein; higher = weaker reporter binding
Details: Eterna round: R107; input ligand: none
Entry flag: true if apparent KD of MS2 coat protein reaches 60 nM; false if it does not.

Some entries whose results are on file:
{"seq.string": "GUCUGAGUCUGAAGGAGCGACAUGAGGAUCACCCAUGUCUCCCGUUAUGGGAGUUCCUUAGGUCAGGUAGGUCGCAGACUCAGAC [#1 Exclusion - Arginine B Attempt #26 (Inspired by Omei)]", "assigned.class": "true"}
{"seq.string": "AACAUGAGGAUCACCCAUGUCUGAACUGAAGGAGCGCUAAACAAGGCAGGUAGGUCGCGGAAUUUUGUGUGCAUAUGCAUAUGGG [9.J]", "assigned.class": "false"}
{"seq.string": "UUCAGCUAGUCGGCCGCCACUACUUGAGGAUCACCCAAGUAAUCCUAACACUGCUUCGGCAGUGGUAGGACCGGGACUAGCUGAG", "assigned.class": "false"}
{"seq.string": "GAUGAUAUUGCAGAUACCAGACACAUGAGGAUCACCCAUGUGUCCUCGCCAGCGGCAUGUGUCCCUUGGCAGCUGCGAUAUCAUC [Colombia]", "assigned.class": "false"}
{"seq.string": "UCGAAUGCGGCGGCCGCCACUCGCGGAUAACGAUAGCUUAACAUGAGGAUCACCCAUGUGUCAUGGAGGACCGGGCCCAUACGGU [kmkmullin]", "assigned.class": "false"}
{"seq.string": "ACGACAUGAGGAUCACCCAUGUACUCUGAAGGAGCGUCGAUUACGACAGGUAGGUCGCAGGCUAAGGAUGGUGAUGCUCAAGACG [Exclusion Arginine A GF8]", "assigned.class": "true"}
{"seq.string": "AUAACAUGAGGAUCACCCAUGUAAGCAGAUACCAGCUAGGAAACUAGCCCUUGGCAGCUGCAAGGUGAUCCUAGGUAUCUGCAAU [(M1)-(M2)-(T1)-(T2)-(M)'-(T)'_Design6]", "assigned.class": "false"}
{"seq.string": "GGUGGCUGGAUUGAUACCAGCCACCACCGAUAGACCACAUGAGGAUCACCCAUGUUGGGUGGCCCUUGGCAGCAGUCCAGCUGCC [#1 Same State - Theophylline B Attempt #9 (HarryS)]", "assigned.class": "true"}
{"seq.string": "ACAUGAGGAUCACCCAUGUUUGAUGUUCCUCGAGGACCGGUACGGCCGCCACUCGAACGAGUGGCACGCGAGUGCGCACUCGCGU [aTa]", "assigned.class": "false"}
{"seq.string": "ACAUGAGGCUCACCCAUGUGUAGUGGGUGGCGAGGACCGGUACGGCCGCCACUCGGCAACAUGAGGAUCACCCAUGUAAGGCCCU [RNA Blob]", "assigned.class": "true"}

Confirm if apparent KD of MS2 coat protein reported for the sequence UUGUUGUUUGGAAGGAGCGUGUAUGAUUAAGAACAUGAGGAUCACCCAUGUUGUAGGGUAGCACAGGUAGGUCGCCGGGUGGUGG [11.V] is 60 nM or above. false

Please tell me: is the sequence GCACAUGAGGAUCACCCAUGUACAACUGAAGGAGCGAGACAGAACUCAGGUAGGUCGCAGAAUGCACAAUAGCAUACGACAUGGG [Exclusion Arginine A GF20] at or over 60 nM in terms of apparent KD of MS2 coat protein? false

Does apparent KD of MS2 coat protein meet or surpass 60 nM for UUUUACAUGAGGAUCACCCAUGUACAUGGGCGAGGACCGGUACGGCCGCCACUCGUGGGACCCACGGGCCCGCUUAGUGGGUACA [LarryB_001] ? true

Quick check: does CGAUAGGGUCAAUACCUAAUCAUAUCUGAAGGAGCGUGGAUAUACACAGGUAGGUCGCAGAAUCACAUGAGGAUCACCCAUGUCC [Same State Arginine A GF13] have apparent KD of MS2 coat protein greater than or equal to 60 nM? true
